Recorded values, source ChEMBL document CHEMBL3856262.

test system: Raoultella planticola; test: Antimicrobial activity against Klebsiella planticola MTCC 530 incubated for 24 hrs by well diffusion assay; assay type: functional; details: MTCC 530, 24 h
reported.property: MIC

Example results:
CCOC(=O)C1=C(C(=O)OCC)[C@@H](c2cc(O)ccc2O)Nc2c1c1ccccc1oc2=O	> 100 µg/mL
O=c1oc2ccccc2c2c1N[C@H](c1ccc(Cl)cc1)[C@H]1CCCO[C@@H]21	> 100 µg/mL

Report MIC for "O=c1oc2ccccc2c2c1N[C@H](c1ccc(Cl)cc1)C[C@H]2c1ccc2ccccc2c1" please.
> 100 µg/mL
